target: Potassium voltage-gated channel subfamily KQT member 2 (Rattus norvegicus) (UniProt O88943); test: rat KCNQ2 potassium channel inhibitors, primary screen, cell-based, CHO-K1, FluxOR thallium flux, B-score (AID 2156); details: 20 min, at 10 µM; stronger effect = lower value
Sequence (O88943 whole entry, looked up): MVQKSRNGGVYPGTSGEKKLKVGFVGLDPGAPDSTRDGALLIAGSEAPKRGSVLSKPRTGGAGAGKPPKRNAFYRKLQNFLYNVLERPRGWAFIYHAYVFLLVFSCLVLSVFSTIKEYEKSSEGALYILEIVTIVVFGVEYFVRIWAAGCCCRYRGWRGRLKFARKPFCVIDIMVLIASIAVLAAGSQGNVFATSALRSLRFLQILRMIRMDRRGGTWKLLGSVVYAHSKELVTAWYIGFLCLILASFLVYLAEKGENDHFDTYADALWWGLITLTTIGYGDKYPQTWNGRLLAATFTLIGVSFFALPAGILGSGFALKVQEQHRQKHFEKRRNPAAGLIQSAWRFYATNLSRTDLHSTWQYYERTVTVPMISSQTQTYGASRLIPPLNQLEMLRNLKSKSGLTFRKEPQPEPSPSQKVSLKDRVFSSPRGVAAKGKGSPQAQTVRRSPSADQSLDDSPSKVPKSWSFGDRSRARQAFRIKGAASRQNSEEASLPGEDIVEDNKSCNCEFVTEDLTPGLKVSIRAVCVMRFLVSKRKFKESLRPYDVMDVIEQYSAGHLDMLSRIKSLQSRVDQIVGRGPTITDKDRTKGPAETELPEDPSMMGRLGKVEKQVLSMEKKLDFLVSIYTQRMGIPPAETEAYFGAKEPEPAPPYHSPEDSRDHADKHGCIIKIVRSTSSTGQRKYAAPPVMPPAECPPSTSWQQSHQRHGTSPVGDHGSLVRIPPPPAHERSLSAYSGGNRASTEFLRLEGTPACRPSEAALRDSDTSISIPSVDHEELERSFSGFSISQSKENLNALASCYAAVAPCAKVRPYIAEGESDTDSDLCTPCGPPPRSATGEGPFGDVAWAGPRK
Hit rate of the full screen: of about 310,000 compounds, about 3,400 (1.1%) were called active. Shown is part of a subset that was picked to be rich in actives.

Compound	B-score
Cc1cccc(C(C)C)c1NC(=O)COC(=O)C1CC(=O)N(Cc2ccccc2)C1 (stereo not drawn)	inactive
CC1CN(C(=O)COC(=O)c2cccc(NS(=O)(=O)c3ccccc3)c2)CC(C)O1 (stereo not drawn)	inactive
O=C(COC(=O)c1cccs1)Nc1ccccc1Cl	-0.17 (inactive)

====

target: Potassium voltage-gated channel subfamily KQT member 2 (Rattus norvegicus); experiment: rat KCNQ2 potassium channel inhibitors, primary screen, cell-based, CHO-K1, FluxOR thallium flux, B-score (AID 2156); settings: 20 min, at 10 µM
Out of some 310,000 compounds screened, about 3,400 (1.1%) were called active.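 Rule for the calls: active = fluorescence ratio B-score at most minus 3 library SDs, with starting brightness B-score within 2 library SDs (cut at about -5.5 in these data); inactive = the rest, inconclusive results apart.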 This excerpt belongs to a sample that is enriched for actives.
Possible outcomes: active, inactive

Molecule	Category label
COc1ccccc1NC(=O)CSc1nnc(-c2ccoc2C)n1CCc1ccccc1	active
CC1CN(c2nc(-c3ccccc3)nnc2-c2ccccc2)CC(C)O1 (configuration not stated)	active
Cn1ccsc1=NC(=O)c1cc(S(=O)(=O)N2CCOCC2)ccc1Cl	inactive
COc1ccccc1NC(=O)CSc1nnc(C)n1CC1CCCO1 (configuration not stated)	inactive
Cn1c(-c2ccc(F)cc2)cnc1SCC(=O)NNC(=O)Cc1ccccc1	inactive
O=C(CCN1C(=O)C2CCCCC2C1=O)Nc1ccc(OC(F)F)cc1 (configuration not stated)	inactive
C=CS(=O)c1sc(Cl)c(N2CCOCC2)c1[N+](=O)[O-] (configuration not stated)	active
CN(Cc1c(F)cccc1Cl)C(=O)CNC(=O)c1ccc2c(c1)OCO2	inactive
COc1ccc(NC(=O)c2cc(-c3cc(OC)c(OC)c(OC)c3)nc3ccccc23)c(OC)c1	active
COCCNC(=O)COc1ccc(N(C)S(=O)(=O)c2ccc3ccccc3c2)cc1	inactive
CCCn1c(SCC(=O)Nc2cccc(C(=O)OCC)c2)nnc1-c1ccoc1C	inactive
COc1ccccc1NC(=O)C(C)OC(=O)CC1CCCC1 (configuration not stated)	inactive

====

target: Potassium voltage-gated channel subfamily KQT member 2 (Rattus norvegicus); experiment: rat KCNQ2 potassium channel inhibitors, primary screen, cell-based, CHO-K1, FluxOR thallium flux, B-score (AID 2156); conditions: 20 min, at 10 µM; stronger effect = lower value
In all, about 310,000 compounds went through this assay and about 3,400 (1.1%) were called active. The full list was thinned out, with actives kept by preference.

Compound	B-score
C=CCCN(Cc1ccccc1)S(=O)(=O)c1ccccc1Br	inactive
O=C(Cc1ccc(S(=O)(=O)N2CCOCC2)s1)N1CCN(c2ccc(C(F)(F)F)cc2[N+](=O)[O-])CC1	inactive
COc1ccc(Cl)cc1NC(=O)COC(=O)C(CC(C)C)N1C(=O)C2CC=CCC2C1=O (stereo not given)	-5.8 (active)
COc1ccc(Cl)cc1NC(=O)CCN1CCOCC1	-1.02 (inactive)
C=CC(COCc1ccccc1)N(Cc1ccccc1)S(=O)(=O)c1ccccc1Br (stereo not given)	-5.61 (active)
Cc1ccc(NC(=O)CSc2nnc(COc3ccccc3C)o2)cc1	inactive
CCOc1ccc(S(=O)(=O)NCCC(=O)NCC(C)(C)N2CCOCC2)cc1	inactive
CC(=O)c1c(C)[nH]c(C(=O)N2CCN(S(=O)(=O)c3ccc(F)c(F)c3)CC2)c1C	inactive
Cc1cccc(NC(=O)C2CCCN2S(=O)(=O)c2ccc(F)cc2)c1C (stereo not given)	-3.21 (inactive)
COc1ccc(C(CNC(=O)c2ccc(NS(=O)(=O)c3ccc(F)c(C)c3)cc2)N(C)C)cc1 (stereo not given)	inactive
